Provenance of the data: ChEMBL document CHEMBL1201862

Target: Replicative DNA helicase DnaB (Mycobacterium tuberculosis)
Sequence (P9WMR3 1-399, added parts left off): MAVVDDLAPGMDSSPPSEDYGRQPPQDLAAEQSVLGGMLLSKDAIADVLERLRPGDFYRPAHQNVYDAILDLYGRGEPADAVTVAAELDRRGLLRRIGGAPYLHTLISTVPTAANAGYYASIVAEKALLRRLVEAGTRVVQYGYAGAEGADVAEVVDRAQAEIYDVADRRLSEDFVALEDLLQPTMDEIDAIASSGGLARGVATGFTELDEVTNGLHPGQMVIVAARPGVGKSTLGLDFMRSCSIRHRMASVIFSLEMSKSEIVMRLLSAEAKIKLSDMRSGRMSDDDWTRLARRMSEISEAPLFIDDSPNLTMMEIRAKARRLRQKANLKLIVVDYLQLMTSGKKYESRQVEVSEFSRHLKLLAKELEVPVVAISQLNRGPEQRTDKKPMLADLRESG
Test: DnaB intein splicing inhibitors, dose response, biochemical, cell-free fluorescence (AID 449749)
Assay type: functional
Calls of active or inactive are those of the source. Cut-off read from the data, not from the text of the source: actives have a measured AC50 and inactives only a lower limit.
Please reply with one of these outcomes: YES = active, NO = inactive

Completed entries (count: 3):
O=C(N/N=C/c1ccc([N+](=O)[O-])o1)c1ccccc1NS(=O)(=O)c1cccs1 = NO
COc1ccccc1-c1cc(C(F)(F)F)nc(S(=O)(=O)CCCC(=O)N2CCOCC2)n1 = YES
Cc1ccc(SCc2n[nH]c3c2C2(CCSCC2)C(C#N)=C(N)O3)cc1 = YES

Ask: Each compound tested received a call. Report the one for `Cc1[nH]c2ccccc2c1CCNC(=O)c1ccc2c(c1[N+](=O)[O-])C(=O)c1ccccc1C2=O` .
Result: YES

Ask: Query: recorded result category for `O=S(=O)(CCSc1nc2ccccc2s1)c1nc2ccccc2s1` in this test
Result: YES
